The measurements presented in this section are drawn from ChEMBL document CHEMBL1201862.

Entries and their GI50 values follow.
tested on: 786-0; test: NCI tumour cell line growth inhibition, 48 h
Activity calls are given as the source filed them. Cut-off read from the data, not from the text of the source: active = GI50 up to about 1.1 µM and inactive = higher.

# count of solved cases: 10
{"Compound": "CCOC(=O)CSc1c(C(=O)OCC)c(=O)n(-c2ccccc2)c(=S)n1-c1ccccc1", "GI50": "85.5 µM (inactive)"}
{"Compound": "N#Cc1c(C#N)c(-c2ccco2)n(-c2ccccc2)c1N", "GI50": "83.4 µM (inactive)"}
{"Compound": "Cc1cn(S(=O)(=O)c2ccccc2)c2c(OCc3ccccc3)cc([N+](=O)[O-])cc12", "GI50": "27.1 µM (inactive)"}
{"Compound": "Nc1nc(=O)c(/N=N/c2ccccc2)c(N)[nH]1", "GI50": "55 µM (inactive)"}
{"Compound": "C=C1C(OC(=O)/C=C/c2ccccc2)CC(OC(C)=O)C2(C)C1CC1CC(OC(C)=O)C(C)=C(C(OC(C)=O)C2OC(C)=O)C1(C)C (stereo not given)", "GI50": "> 100 µM (inactive)"}
{"Compound": "CCOC(=O)c1c(NC(=O)c2ccccc2)sc2c1CCC2", "GI50": "> 100 µM (inactive)"}
{"Compound": "COP(=O)(OC)[C@@](O)(c1ccccc1)[C@@H](O)[C@H](O)c1ccccc1", "GI50": "98.6 µM (inactive)"}
{"Compound": "COC(=O)C1(C(=O)OC)Cc2ccc(C)cc2C2=C1C(=O)c1ccccc1C2=O", "GI50": "26.4 µM (inactive)"}
{"Compound": "COC(=O)CCC(=O)c1ccc2c(c1)CC1(Cc3ccccc3C1)C2", "GI50": "94.6 µM (inactive)"}
{"Compound": "C[C@]12CCC(=O)C=C1CC[C@@H]1[C@@H]2CC[C@]2(C)C(=O)/C(=C/c3ccc([N+](=O)[O-])cc3)C[C@@H]12", "GI50": "18.6 µM (inactive)"}

Here is another compound to look at.
## Task Give 786-0 GI50 for CCCCc1c2c(nc3c1CCc1cc4cc5c(nc4nc1-3)-c1nc3c(c(CCCC)c1CC5)CCC/C3=C\c1ccccc1)/C(=C/c1ccccc1)CCC2
## Result > 100 µM (inactive)
